Each entry below carries its recorded EC50.
Molecular target: hGIPR (Homo sapiens)
Sequence (P48546 22-466): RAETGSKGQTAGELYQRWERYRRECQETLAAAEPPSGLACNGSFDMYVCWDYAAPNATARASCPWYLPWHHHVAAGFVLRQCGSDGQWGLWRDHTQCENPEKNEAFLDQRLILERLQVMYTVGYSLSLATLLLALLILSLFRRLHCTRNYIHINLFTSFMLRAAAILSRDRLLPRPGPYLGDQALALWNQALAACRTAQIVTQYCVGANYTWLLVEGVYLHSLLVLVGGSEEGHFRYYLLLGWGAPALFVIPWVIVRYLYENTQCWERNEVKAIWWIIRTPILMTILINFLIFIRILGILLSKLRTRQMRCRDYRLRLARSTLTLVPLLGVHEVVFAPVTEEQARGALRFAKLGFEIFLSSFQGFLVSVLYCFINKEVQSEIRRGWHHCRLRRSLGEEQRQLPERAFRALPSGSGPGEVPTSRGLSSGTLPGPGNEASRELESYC
Experiment: Functional cAMP activation in the presence of 0.1% casein (no HSA);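 note: intracellular cAMP rise after 30 min at 37 °C read by HTRF against a standard curve, scaled between buffer alone (0%) and top control ligand concentration (100%), four-parameter fit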
Format: cell-based
Conditions: in the presence of 0.1% casein (no HSA); geometric mean; read-out: Relative cAMP EC50, hGIPR
Starred links: 1 amine or outer side, 2 acyl side, 3 side chain; linkers in the order of their positions; H or OH if unused. Non-standard residues stand in square brackets, D forms with d. Groups on a side chain read outwards from the residue. No end group written: not given here. *: point of attachment. C18 diacid = O=C(O)CCCCCCCCCCCCCCCCC(=O)*; γGlu = O=C(O)[C@H](CCC(=O)[*:2])N[*:1]; αMe4Pal = C[C@](N)(Cc1ccncc1)C(=O)O; αMeY = C[C@](N)(Cc1ccc(O)cc1)C(=O)O; 4Pal = N[C@@H](Cc1ccncc1)C(=O)O; αMeL = CC(C)C[C@](C)(N)C(=O)O; Orn = NCCC[C@H](N)C(=O)O; AEEA = NCCOCCOCC(=O)O; Aib = CC(C)(N)C(=O)O
quantity: EC50 (nM)

substance	quantity	result.number
Y[Aib]QGTFTSD[4Pal]SQ[αMeL]LDKK([AEEA-γGlu-C18 diacid])AQ[αMe4Pal]AFIEYLIE[dA]GPSSGAPPPSGS-NH2 [Example 829]	EC50	0.124
H-Y[Aib]QGTFTSD[4Pal]SQ[αMeL]LD[Orn]K([AEEA-γGlu-C18 diacid])AQ[Aib]AFIE[αMeY]LIEGGPSSGAPPPSGS-NH2 [Example 850]	EC50	0.346
Y[Aib]QGTFTSDFS[Orn][αMeL]LDKK([AEEA-γGlu-C18 diacid])AQ[Aib]AFIEYLLE[dA]GPSSGEPPPSGE-NH2 [Example 135]	EC50	0.246
